- methodDescription: Drug degradation in histidine solution using 99mTc(CO)3-labeled compound after 24 hrs by TLC method
- Format: physicochemical
- details: read-out: Drug degradation
Residues, ends and D or L forms follow the SMILES beside them. *: point of attachment. X1 = O=c1nc(N*)ccn1[C@@H]1O[C@H](CO)[C@@H](O)C1(F)F
quantityKind: degraded at 24 h (%)
Give your result in % as a bare value.

NCCCC[C@H](NC(=O)CNC(=O)[C@H](Cc1cnc[nH]1)NC(=O)[C@H](CCCCN)NC(=O)[C@H](Cc1ccc(O)cc1)NC(=O)[C@@H](N)Cc1cnc[nH]1)C(=O)N[C@@H](CC(=O)Nc1ccn([C@@H]2O[C@H](CO)[C@@H](O)C2(F)F)c(=O)n1)C(N)=O (H-HYKHGKD(X1)-NH2) | 5

Would you kindly look at the next entry?
IN: Would you kindly share the measured degraded at 24 h for N=C(N)NCCC[C@H](NC(=O)[C@@H](N)Cc1cnc[nH]1)C(=O)NCC(=O)N[C@@H](CC(=O)Nc1ccn([C@@H]2O[C@H](CO)[C@@H](O)C2(F)F)c(=O)n1)C(N)=O (H-HRGD(X1)-NH2) ?
OUT: 5
